These measurements were taken from patent EP0454444A1.

# Test system: cotton (Gossypium herbaceum)
# Assay summary: Herbicidal effect test by soil treatment
# Type: in vivo
# Condition summary: crop plant, application amount 0.4 g/a, three weeks after spraying
Quantity name: herbicidal effect, C (Gossypium herbaceum)

In: Report herbicidal effect, C (Gossypium herbaceum) for C#CCN1C(=O)COc2cc(F)c(N3C(=O)CC(C)CC3=O)cc21 [1-23] please.
Out: 2 (Growth control rates of 20 to 40%)

====

# System: cotton (Gossypium herbaceum)
# Assay summary: Herbicidal effect test by soil treatment
# Type: in vivo
# Condition summary: crop plant, application amount 0.8 g/a, three weeks after spraying
# Description: In a plastic box of 15 cm length, 22 cm width and 6 cm depth, there was placed a sterilized dilvial soil, and seeds of barnyardgrass (Echinochloa crusgalli), large crabgrass (Digitaria adscendens), annual sedge (Cyperus microiria), black nightshade (Solanum nigrum L.), hairly galinosoga (Galinsoga ciliat), rorippa ssp. (Rorippa atrovirens), rice (Oryza sativa), corn (Zea mays), wheat (Triticum aestivum), soybean (Glysine max) and cotton (Gossypium herbaceum) were sown mixedly. […]
Quantity name: herbicidal effect, C (Gossypium herbaceum)

In: Report herbicidal effect, C (Gossypium herbaceum) for C#CCN1C(=O)COc2cc(F)c(N3C(=O)CC(C)CC3=O)cc21 please.
Out: 3 (Growth control rates of 40 to 70%)

In: Report herbicidal effect, C (Gossypium herbaceum) for CC(C)OC(=O)c1cc(N2C(=O)CC(C(F)(F)F)C(C)C2=O)c(F)cc1Cl (centres unmarked) please.
Out: 1 (Growth control rates of 5 to 20%)

In: Report herbicidal effect, C (Gossypium herbaceum) for O=C1COc2cc(F)c(N3C(=O)CC(C(F)(F)F)CC3=O)cc2N1Cc1ccccc1 please.
Out: 1 (Growth control rates of 5 to 20%)

In: Report herbicidal effect, C (Gossypium herbaceum) for C#CCN1C(=O)COc2ccc(N3C(=O)CC(C(F)(F)F)CC3=O)cc21 please.
Out: 1 (Growth control rates of 5 to 20%)
